Assay: Metabolic stability in CD-1 mouse microsomes assessed as half life at 37 degC by LC-MS/MS analysis
Format: ADME, Microsome

[
  {
    "smiles.representation": "O=C(O)[C@H](CCCn1c(-c2ccccc2)n[nH]c1=S)N(Cc1ccccn1)Cc1ccccn1",
    "half-life": "> 40 min"
  },
  {
    "smiles.representation": "O=C(O)[C@H](CCCn1c(-c2ccc3ccccc3c2)n[nH]c1=S)N(Cc1c[nH]cn1)Cc1c[nH]cn1",
    "half-life": "> 40 min"
  },
  {
    "smiles.representation": "Cc1[nH]cnc1CN(Cc1c[nH]cn1)[C@@H](CCCn1c(-c2ccccc2)n[nH]c1=S)C(=O)O",
    "half-life": "> 40 min"
  },
  {
    "smiles.representation": "O=C(O)[C@H](CCCn1c(-c2ccccc2)n[nH]c1=S)N(Cc1c[nH]cn1)Cc1c[nH]cn1",
    "half-life": "> 40 min"
  },
  {
    "smiles.representation": "O=C(O)[C@H](CCn1c(-c2ccccc2)n[nH]c1=S)N(Cc1c[nH]cn1)Cc1c[nH]cn1",
    "half-life": "> 40 min"
  },
  {
    "smiles.representation": "CCOC(=O)[C@H](CCc1ccccc1)N[C@@H](C)C(=O)N1CCC[C@H]1C(=O)O",
    "half-life": "63 min"
  }
]

----------
Assay: Inhibition of bacterial VIM-1 (unknown origin) expressed in Escherichia coli EXPRESS BL21(DE3) assessed as inhibition constant by measuring rate of substrate hydrolysis by UV-visible spectrophotometry
Design: species or system Bacteria
pKi: −log10 of the molar value.
Mark 1.0 for reported pKi of 6 or greater; mark 0.0 for anything smaller.

[
  {
    "smiles.representation": "O=C(O)[C@H](CCCn1c(-c2ccccc2)n[nH]c1=S)N(Cc1cscn1)Cc1cscn1",
    "assigned.class": 0.0
  },
  {
    "smiles.representation": "O=C(O)[C@H](CCCn1c(-c2ccccc2)n[nH]c1=S)N(Cc1cncs1)Cc1cncs1",
    "assigned.class": 1.0
  },
  {
    "smiles.representation": "Cn1cncc1CN(Cc1c[nH]cn1)[C@@H](CCCn1c(-c2ccccc2)n[nH]c1=S)C(=O)O",
    "assigned.class": 0.0
  },
  {
    "smiles.representation": "O=C(O)[C@H](CCCn1c(-c2ccccc2)n[nH]c1=S)NCc1cccc(O)c1O",
    "assigned.class": 0.0
  },
  {
    "smiles.representation": "Cc1[nH]cnc1CN(Cc1c[nH]cn1)[C@@H](CCCn1c(-c2ccccc2)n[nH]c1=S)C(=O)O",
    "assigned.class": 1.0
  },
  {
    "smiles.representation": "O=C(O)[C@H](CCCn1c(-c2ccccc2)n[nH]c1=S)N(Cc1cn[nH]c1)Cc1cn[nH]c1",
    "assigned.class": 0.0
  }
]

----------
Tested on: Pseudomonas aeruginosa
Assay: Antimicrobial activity against blaVIM-2-producing multidrug-resistant Pseudomonas aeruginosa VA-182/00 clinical isolate assessed as meropenem MIC at 32 ug/ml by broth microdilution method (reference value: 128 ug/ml)
Assay type: functional
Conditions: dose 32 µg/ml
Each item that follows carries a reported MIC.
reported.endpoint: MIC (µg/mL)

[
  {
    "smiles.representation": "COc1cccc(CN(Cc2cccc(OC)c2OC)[C@@H](CCCn2c(-c3ccccc3)n[nH]c2=S)C(=O)O)c1OC",
    "unit.spec": "µg/mL",
    "endpoint.value": 128
  },
  {
    "smiles.representation": "O=C(O)[C@H](CCCn1c(-c2ccccc2)n[nH]c1=S)N(Cc1cccnc1)Cc1c[nH]cn1",
    "unit.spec": "µg/mL",
    "endpoint.value": 128
  },
  {
    "smiles.representation": "O=C(O)[C@H](CCCn1c(-c2ccccc2)n[nH]c1=S)N(Cc1cccnc1)Cc1cccnc1",
    "unit.spec": "µg/mL",
    "endpoint.value": 128
  },
  {
    "smiles.representation": "O=C(O)[C@H](CCCn1c(-c2ccc3ccccc3c2)n[nH]c1=S)N(Cc1c[nH]cn1)Cc1c[nH]cn1",
    "unit.spec": "µg/mL",
    "endpoint.value": 8
  },
  {
    "smiles.representation": "O=C(O)[C@H](CCCn1c(-c2cccc(-c3ccccc3)c2)n[nH]c1=S)N(Cc1c[nH]cn1)Cc1c[nH]cn1",
    "unit.spec": "µg/mL",
    "endpoint.value": 8
  },
  {
    "smiles.representation": "Cc1[nH]cnc1CN(Cc1c[nH]cn1)[C@@H](CCCn1c(-c2ccccc2)n[nH]c1=S)C(=O)O",
    "unit.spec": "µg/mL",
    "endpoint.value": 8
  },
  {
    "smiles.representation": "O=C(O)[C@H](CCCn1c(-c2ccccc2)n[nH]c1=S)N(Cc1cnccn1)Cc1c[nH]cn1",
    "unit.spec": "µg/mL",
    "endpoint.value": 128
  },
  {
    "smiles.representation": "O=C(O)[C@H](CCCn1c(-c2ccccc2)n[nH]c1=S)N(Cc1ccccc1)Cc1c[nH]cn1",
    "unit.spec": "µg/mL",
    "endpoint.value": 128
  },
  {
    "smiles.representation": "Cc1[nH]cnc1CN(Cc1nc[nH]c1C)[C@@H](CCCn1c(-c2ccccc2)n[nH]c1=S)C(=O)O",
    "unit.spec": "µg/mL",
    "endpoint.value": 16
  },
  {
    "smiles.representation": "O=C(O)[C@H](CCCCn1c(-c2ccccc2)n[nH]c1=S)N(Cc1c[nH]cn1)Cc1c[nH]cn1",
    "unit.spec": "µg/mL",
    "endpoint.value": 16
  },
  {
    "smiles.representation": "O=C(O)[C@H](CCCn1c(Cc2ccccc2)n[nH]c1=S)N(Cc1c[nH]cn1)Cc1c[nH]cn1",
    "unit.spec": "µg/mL",
    "endpoint.value": 8
  },
  {
    "smiles.representation": "O=C(O)[C@H](CCCn1c(-c2ccccc2)n[nH]c1=S)N(Cc1cnccn1)Cc1cnccn1",
    "unit.spec": "µg/mL",
    "endpoint.value": 128
  },
  {
    "smiles.representation": "O=C(O)[C@H](CCCn1c(Cc2ccc3ccccc3c2)n[nH]c1=S)N(Cc1c[nH]cn1)Cc1c[nH]cn1",
    "unit.spec": "µg/mL",
    "endpoint.value": 8
  },
  {
    "smiles.representation": "O=C(O)[C@H](CCCn1c(-c2ccccc2)n[nH]c1=S)N(Cc1ccccn1)Cc1c[nH]cn1",
    "unit.spec": "µg/mL",
    "endpoint.value": 8
  },
  {
    "smiles.representation": "O=C(O)[C@H](CCCn1c(-c2ccccc2)n[nH]c1=S)N(Cc1cncs1)Cc1cncs1",
    "unit.spec": "µg/mL",
    "endpoint.value": 128
  },
  {
    "smiles.representation": "O=C(O)[C@H](CCCn1c(-c2ccccc2)n[nH]c1=S)N(Cc1cn[nH]c1)Cc1cn[nH]c1",
    "unit.spec": "µg/mL",
    "endpoint.value": 128
  },
  {
    "smiles.representation": "O=C(O)[C@H](CCCn1c(-c2ccccc2)n[nH]c1=S)N(Cc1c[nH]cn1)Cc1cncs1",
    "unit.spec": "µg/mL",
    "endpoint.value": 128
  }
]
